Experiment: Half life in human at 0.7 mg/kg, po
Conditions: in vivo
READOUT_NAME: half-life (h)
Numbers only, in h.

Fill in: half-life of COC(=O)[C@H](c1ccccc1Cl)N1CCc2sccc2C1 [CLOPIDOGREL] is ___
6

* * *

Target: Beta-secretase 1 (Homo sapiens, UniProt P56817)
Sequence (P56817 whole entry): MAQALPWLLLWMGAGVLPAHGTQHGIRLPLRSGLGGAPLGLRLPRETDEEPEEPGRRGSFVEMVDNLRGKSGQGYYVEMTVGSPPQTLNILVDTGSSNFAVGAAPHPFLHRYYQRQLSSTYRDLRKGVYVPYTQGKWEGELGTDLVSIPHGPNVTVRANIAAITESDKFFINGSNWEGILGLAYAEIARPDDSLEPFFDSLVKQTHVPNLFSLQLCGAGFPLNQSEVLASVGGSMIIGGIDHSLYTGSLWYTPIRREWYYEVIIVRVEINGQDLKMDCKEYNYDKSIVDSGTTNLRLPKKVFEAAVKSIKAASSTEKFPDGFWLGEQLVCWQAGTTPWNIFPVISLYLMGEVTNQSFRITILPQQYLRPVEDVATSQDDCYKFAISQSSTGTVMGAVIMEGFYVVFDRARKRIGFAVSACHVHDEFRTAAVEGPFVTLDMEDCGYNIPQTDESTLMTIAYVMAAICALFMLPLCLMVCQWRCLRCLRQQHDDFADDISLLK
Test: Inhibition of human recombinant BACE1 expressed in HEK293 cells by FRET assay
READOUT_NAME: IC50 (µM)
Answers are plain numbers, in µM.

Fill in: IC50 of COC(=O)c1cc(C)cc2sc3cccc(OC)c3c12 is ___
0.6

* * *

Test: clinical
Conditions: human
READOUT_NAME: half-life (h)
Numbers only, in h.

Fill in: half-life of Clc1ccccc1CN1CCc2sccc2C1 is ___
7.9

* * *

Recorded IC50 values (Vascular endothelial growth factor receptor 2 (Homo sapiens, UniProt P35968)) are given below.
Give bare numbers, in nM.

>>> endpoint_value("Cc1c(NC(=O)Nc2ccc(OC(F)(F)F)cc2)sc2ccccc12")
11.3

Lab note: next compound to report on.
Fill in: IC50 of N#Cc1c(N)sc(C(=O)NC2=NN=C(O)/C2=C(\C=C\c2ccccc2)c2ccccc2)c1N is ___
320

* * *

Target: Glucagon receptor (Homo sapiens, UniProt P47871)
Sequence (P47871 whole entry): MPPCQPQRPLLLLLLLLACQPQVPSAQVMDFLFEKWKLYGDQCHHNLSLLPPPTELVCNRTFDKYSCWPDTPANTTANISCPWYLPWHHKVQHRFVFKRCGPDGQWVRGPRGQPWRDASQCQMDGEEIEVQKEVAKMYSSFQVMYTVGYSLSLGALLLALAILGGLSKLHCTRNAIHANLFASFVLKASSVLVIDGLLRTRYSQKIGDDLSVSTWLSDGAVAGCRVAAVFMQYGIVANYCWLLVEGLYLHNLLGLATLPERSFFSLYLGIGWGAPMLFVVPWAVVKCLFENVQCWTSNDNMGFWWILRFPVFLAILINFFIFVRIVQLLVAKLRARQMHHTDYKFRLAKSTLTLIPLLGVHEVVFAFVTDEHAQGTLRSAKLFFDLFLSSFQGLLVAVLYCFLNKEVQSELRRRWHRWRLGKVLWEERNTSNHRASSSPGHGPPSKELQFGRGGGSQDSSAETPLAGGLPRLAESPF
Assay: Antagonist activity at wild type human GCGR
READOUT_NAME: IC50 (µM)
Numbers only, in µM.

>>> endpoint_value("Cc1cc(Cl)ccc1-c1ccc(NC(=O)C(Cc2ccc(C(=O)NCCS(=O)(=O)O)s2)c2ccc(-c3ccc(C(C)(C)C)cc3)cc2)cc1 (configuration not stated)")
4.4

Lab note: next compound to report on.
Fill in: IC50 of Cc1cc(Cl)ccc1-c1ccc(NC(=O)C(Cc2ccc(C(=O)NCCS(=O)(=O)O)s2)c2ccc(-c3ccc(OC(F)(F)F)cc3)cc2)cc1 (configuration not stated) is ___
6.1

* * *

Test: Terminal half life in human at 2.5 mg/kg, po
Assay type: ADME, organism-based
Settings: in vivo, read-out: beta t1/2 (converted)
READOUT_NAME: half-life (h)
Numbers only, in h.

Fill in: half-life of CCCCc1ncc(/C=C(\Cc2cccs2)C(=O)O)n1Cc1ccc(C(=O)O)cc1 is ___
5

* * *

Test: Inhibition of EGFR2 (unknown origin)
Design: species or system Homo sapiens
READOUT_NAME: pIC50
Give bare numbers, as −log10 of the molar value.

Fill in: pIC50 of CN1CCN(CC(=O)Nc2sc3c(c2C#N)CCC(C(C)(C)C)C3)CC1 (stereo unspecified) is ___
6.17

* * *

Assay: Half life in po dosed human
Assay type: ADME, organism-based
Details: in vivo
Consider the following compounds; for each one, report its half-life.
# output: numeric value plus its unit

>>> endpoint_value("Cc1nc2ccc(CN(C)c3ccc(C(=O)N[C@@H](CCC(=O)O)C(=O)O)s3)cc2c(=O)[nH]1")
"192 h"
>>> endpoint_value("O=C(Nc1nc(-c2cc(Cl)cs2)c(N2CCN(C3CCCCC3)CC2)s1)c1cnc(N2CCC(C(=O)O)CC2)c(Cl)c1")
"19 h"
>>> endpoint_value("CNCC[C@H](Oc1cccc2ccccc12)c1cccs1")
"12 h"
>>> endpoint_value("CN1C(C(=O)Nc2ccccn2)=C(O)c2sccc2S1(=O)=O")
"72 h"
>>> endpoint_value("Cc1cc(C2=NO[C@@](c3cc(Cl)c(Cl)c(Cl)c3)(C(F)(F)F)C2)sc1C(=O)NCC(=O)NCC(F)(F)F")
"11 h"
>>> endpoint_value("Cc1ccsc1C(=CCCN1CCC[C@@H](C(=O)O)C1)c1sccc1C")
"7 h"
>>> endpoint_value("O=C(O[C@H]1C[N+]2(CCCOc3ccccc3)CCC1CC2)C(O)(c1cccs1)c1cccs1")
"24 h"
>>> endpoint_value("CC(C(=O)O)c1ccc(C(=O)c2ccccc2)s1 (centres undefined)")
"1.5 h"

Lab note: next compound to report on.
Fill in: half-life of CONC(=O)Nc1ccc(-c2sc3c(c2CN(C)C)c(=O)n(-c2ccc(OC)nn2)c(=O)n3Cc2c(F)cccc2F)cc1 is ___
25 h

* * *

Tested on: HA22T cell line
Test: Cytotoxicity against human HA22T cell line assessed as reduction in cell growth incubated for 24 hrs by SRB assay
Type: functional, cell-based
READOUT_NAME: IC50 (nM)
One number for each entry, in nM.

Quick check: IC50 on HA22T cell line, item N#CC(C#N)=NNc1sc2c(c1C1=NC(=O)C(Cc3ccc(Cl)cc3)S1)CCCC2 (stereo unspecified) ?
59

* * *

Assay: Terminal half life in human plasma
Assay type: ADME, cell-free
Settings: read-out: beta t1/2 (converted)
READOUT_NAME: half-life (h)
Numbers only, in h.

Fill in: half-life of CCCN(CCc1cccs1)[C@H]1CCc2c(O)cccc2C1 is ___
7

* * *

Target: Acetylcholinesterase (Homo sapiens, UniProt P22303)
Sequence (P22303 whole entry): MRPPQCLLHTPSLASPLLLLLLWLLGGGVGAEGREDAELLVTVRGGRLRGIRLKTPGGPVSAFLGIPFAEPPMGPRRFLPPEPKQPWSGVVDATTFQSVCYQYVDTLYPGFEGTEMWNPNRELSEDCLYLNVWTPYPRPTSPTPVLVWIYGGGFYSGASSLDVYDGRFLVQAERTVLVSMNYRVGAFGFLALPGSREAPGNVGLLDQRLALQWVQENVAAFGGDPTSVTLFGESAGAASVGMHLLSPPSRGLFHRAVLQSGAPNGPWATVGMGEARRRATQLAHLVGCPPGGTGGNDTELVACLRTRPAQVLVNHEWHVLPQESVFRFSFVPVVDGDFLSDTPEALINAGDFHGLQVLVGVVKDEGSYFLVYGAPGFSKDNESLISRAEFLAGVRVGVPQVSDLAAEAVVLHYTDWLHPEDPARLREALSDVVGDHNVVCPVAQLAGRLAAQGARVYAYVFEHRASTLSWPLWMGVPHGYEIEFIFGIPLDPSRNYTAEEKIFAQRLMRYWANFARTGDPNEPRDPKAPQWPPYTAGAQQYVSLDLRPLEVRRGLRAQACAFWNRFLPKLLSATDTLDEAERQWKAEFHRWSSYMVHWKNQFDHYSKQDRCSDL
Experiment: Inhibition of AChE (unknown origin) by Ellman's method
READOUT_NAME: IC50 (nM)
Answers are plain numbers, in nM.

Fill in: IC50 of O=C(/C=C/c1cccs1)c1ccc(OCCCCBr)cc1 is ___
420

* * *

Assay: Inhibition of urease (unknown origin)
READOUT_NAME: pIC50
Answers are plain numbers, as −log10 of the molar value.

Fill in: pIC50 of Cc1ccc2c(c1)n(CN1CCN(c3ccccc3)CC1)c(=O)n2CN1CCN(c2ccccc2)CC1 is ___
6.96

* * *

Assay: Half life in po dosed human plasma
Format: ADME, organism-based
READOUT_NAME: half-life
# output: numeric value plus its unit

Fill in: half-life of CN1CCC(=C2c3ccccc3CC(=O)c3sccc32)CC1 is ___
3 h

* * *

Assay: Terminal half life in human
Type: ADME
Conditions: read-out: beta t1/2 (converted)
READOUT_NAME: half-life (h)
One number for each entry, in h.

Fill in: half-life of O=C(NC[C@H]1CN(c2ccc(N3CCOCC3=O)cc2)C(=O)O1)c1ccc(Cl)s1 is ___
5

* * *

Molecular target: Amine oxidase [flavin-containing] B (Homo sapiens)
Sequence (P27338 whole entry): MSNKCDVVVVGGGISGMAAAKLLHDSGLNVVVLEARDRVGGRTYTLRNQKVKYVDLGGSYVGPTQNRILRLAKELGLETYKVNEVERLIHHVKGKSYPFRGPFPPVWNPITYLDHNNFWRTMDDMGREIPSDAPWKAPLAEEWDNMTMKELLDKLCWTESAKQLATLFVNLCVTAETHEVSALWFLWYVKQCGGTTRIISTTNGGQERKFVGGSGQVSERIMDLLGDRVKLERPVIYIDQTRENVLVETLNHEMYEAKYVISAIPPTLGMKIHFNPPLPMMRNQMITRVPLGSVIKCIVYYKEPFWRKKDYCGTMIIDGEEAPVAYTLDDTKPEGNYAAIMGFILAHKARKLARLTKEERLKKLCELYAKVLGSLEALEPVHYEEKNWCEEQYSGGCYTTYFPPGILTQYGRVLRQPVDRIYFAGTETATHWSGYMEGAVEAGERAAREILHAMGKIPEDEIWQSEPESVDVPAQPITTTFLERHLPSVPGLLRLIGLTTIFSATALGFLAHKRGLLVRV
Assay: Inhibition of human MAO-B measured after 25 mins by Amplex Red reagent based fluorescence analysis
READOUT_NAME: IC50 (nM)
Numbers only, in nM.

Fill in: IC50 of C/C(=N\N=C1/CS(=O)(=O)N(C)c2ccccc21)c1ccc(Br)s1 is ___
1030

* * *

Biological target: UniProt:P06276
Sequence (P06276 whole entry): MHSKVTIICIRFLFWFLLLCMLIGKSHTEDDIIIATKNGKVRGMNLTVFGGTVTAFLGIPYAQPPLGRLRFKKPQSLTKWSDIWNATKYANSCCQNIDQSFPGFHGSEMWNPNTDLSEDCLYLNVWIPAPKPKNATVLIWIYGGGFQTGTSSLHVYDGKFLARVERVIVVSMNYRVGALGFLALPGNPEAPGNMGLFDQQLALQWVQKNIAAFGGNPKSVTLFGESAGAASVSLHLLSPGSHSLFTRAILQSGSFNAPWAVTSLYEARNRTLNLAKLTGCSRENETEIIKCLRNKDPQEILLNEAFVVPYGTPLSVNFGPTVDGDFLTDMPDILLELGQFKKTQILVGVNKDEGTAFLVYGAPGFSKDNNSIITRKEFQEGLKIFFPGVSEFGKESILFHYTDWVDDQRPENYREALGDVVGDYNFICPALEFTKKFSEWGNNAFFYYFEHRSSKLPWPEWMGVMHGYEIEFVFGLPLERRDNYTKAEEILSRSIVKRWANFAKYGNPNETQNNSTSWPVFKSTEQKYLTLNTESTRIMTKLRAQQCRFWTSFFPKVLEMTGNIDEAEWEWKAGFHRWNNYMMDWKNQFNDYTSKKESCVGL
READOUT_NAME: pIC50
Answers are plain numbers, as −log10 of the molar value.

Fill in: pIC50 of O=C(NNC(=S)Nc1ccccc1[N+](=O)[O-])c1sccc1Cl is ___
5.72

* * *

System: HONE1 cell line
Test: Cytotoxicity against human HONE1 cell line assessed as reduction in cell growth incubated for 24 hrs by SRB assay
Format: toxicity, cell-based
Conditions: HONE1, 24 h
READOUT_NAME: IC50 (nM)
Answers are plain numbers, in nM.

Quick check: IC50 on HONE1 cell line, item N#CC(C#N)=NNc1sc2c(c1C1=NC(=O)C(Cc3ccc(Cl)cc3)S1)CCCC2 (stereo unspecified) ?
59

* * *

Tested on: MDA-MB-231
Experiment: cells
Conditions: Homo sapiens
Description: Cytotoxicity against human MDA-MB-231 cells assessed as reduction in cell viability by MTT assay
READOUT_NAME: IC50 (nM)
Give bare numbers, in nM.

>>> endpoint_value("COc1cccc2c1C(=O)c1c(O)c3c(c(O)c1C2=O)C[C@@](O)(C(=O)CO)C[C@@H]3O[C@H]1C[C@H](N)[C@H](O)[C@H](C)O1 [DOXORUBICIN]")
980

Lab note: next compound to report on.
Fill in: IC50 of Cc1ccc(NCc2ccc(CNc3ccc(C)cc3)o2)cc1 is ___
880

* * *

Target: Epidermal growth factor receptor (Homo sapiens, UniProt P00533)
Sequence (P00533 whole entry): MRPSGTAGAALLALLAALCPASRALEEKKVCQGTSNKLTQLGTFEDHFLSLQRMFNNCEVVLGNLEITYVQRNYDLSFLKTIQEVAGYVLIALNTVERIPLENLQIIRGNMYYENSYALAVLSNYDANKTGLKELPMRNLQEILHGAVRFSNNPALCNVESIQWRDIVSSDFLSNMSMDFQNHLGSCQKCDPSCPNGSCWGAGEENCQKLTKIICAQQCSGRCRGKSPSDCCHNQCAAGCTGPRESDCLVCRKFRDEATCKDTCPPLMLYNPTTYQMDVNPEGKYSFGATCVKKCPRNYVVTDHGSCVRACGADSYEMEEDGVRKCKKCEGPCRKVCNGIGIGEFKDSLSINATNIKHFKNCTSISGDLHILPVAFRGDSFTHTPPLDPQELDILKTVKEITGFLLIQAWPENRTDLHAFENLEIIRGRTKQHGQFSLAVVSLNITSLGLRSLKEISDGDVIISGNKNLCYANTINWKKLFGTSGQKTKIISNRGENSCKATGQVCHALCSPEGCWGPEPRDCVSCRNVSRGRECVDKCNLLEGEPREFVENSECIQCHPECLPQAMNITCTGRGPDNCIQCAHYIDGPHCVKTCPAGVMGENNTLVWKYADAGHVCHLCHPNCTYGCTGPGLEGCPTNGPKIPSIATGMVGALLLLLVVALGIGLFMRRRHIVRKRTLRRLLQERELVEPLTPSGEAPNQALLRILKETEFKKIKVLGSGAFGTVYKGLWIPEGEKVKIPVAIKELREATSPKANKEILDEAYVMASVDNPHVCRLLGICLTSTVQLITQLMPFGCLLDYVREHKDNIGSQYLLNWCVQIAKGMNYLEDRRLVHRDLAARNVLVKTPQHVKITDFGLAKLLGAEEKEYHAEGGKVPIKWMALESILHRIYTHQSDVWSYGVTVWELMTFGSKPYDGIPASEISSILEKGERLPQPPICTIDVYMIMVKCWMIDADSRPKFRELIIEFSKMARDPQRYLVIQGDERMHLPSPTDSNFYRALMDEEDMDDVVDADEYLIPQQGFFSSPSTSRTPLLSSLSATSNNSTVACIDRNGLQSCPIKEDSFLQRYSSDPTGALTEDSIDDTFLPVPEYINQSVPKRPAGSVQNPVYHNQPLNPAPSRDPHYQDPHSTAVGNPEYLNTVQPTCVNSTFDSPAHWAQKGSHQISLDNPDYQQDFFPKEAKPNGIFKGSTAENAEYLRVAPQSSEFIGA
READOUT_NAME: pIC50
Numbers only, as −log10 of the molar value.

Fill in: pIC50 of Cc1c(NC(=O)Nc2ccc(OC(F)(F)F)cc2)sc2ccccc12 is ___
7.33

* * *

Molecular target: Acetylcholinesterase (Homo sapiens, UniProt P22303)
Experiment: Inhibition of AChE (unknown origin)
READOUT_NAME: pIC50
Give bare numbers, as −log10 of the molar value.

Quick check: pIC50 on Acetylcholinesterase (Homo sapiens, UniProt P22303), item O=C(NNC(=S)Nc1ccccc1[N+](=O)[O-])c1sccc1Cl ?
6.40

* * *

Target: Glucagon receptor (Homo sapiens, UniProt P47871)
Assay: Antagonist activity at wild type human GCGR transfected in HEK293T cells assessed as intracellular cAMP accumulation incubated for 60 mins by FRET assay
Format: functional, cell-based
READOUT_NAME: IC50
# output: numeric value plus its unit

>>> endpoint_value("Cc1cc(Cl)ccc1-c1ccc(NC(=O)C(Cc2ccc(C(=O)NCCS(=O)(=O)O)s2)c2ccc(-c3ccc(C(C)(C)C)cc3)cc2)cc1 (configuration not stated)")
"14.4 µM"

Lab note: next compound to report on.
Fill in: IC50 of Cc1cc(Cl)ccc1-c1ccc(NC(=O)C(Cc2ccc(C(=O)NCCS(=O)(=O)O)s2)c2ccc(-c3ccc(OC(F)(F)F)cc3)cc2)cc1 (configuration not stated) is ___
4.4 µM
